ASSAY_COMMENT: chemical genetic growth profiling, strain panel (AID 1159580);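 note: tested at 20 µM; growth read once vehicle control cultures reached saturation at 30 °C; 1 = growth at the plate median or of vehicle wells; lower values mean less growth of the strain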
RUN_CONDITIONS: S. cerevisiae deletion strains, growth OD, locus YMR231W, strain pep5, hits give low values
Screen size: about 5,500 compounds; about 2,000 (36%) were called active. Roughly 18% stayed inconclusive and do not appear here. The list shows a part of the results.
normalized growth by entry:
ASSAY_ENDPOINT: normalized growth

INSERT INTO measurements (compound, test_result) VALUES
  ('C=C1C(=O)[C@]23[C@H](O)[C@H]1CC[C@H]2[C@@]12CO[C@]3(O)[C@H](O)[C@@H]1C(C)(C)CC[C@@H]2O', 0.994),
  ('Cc1onc(-c2ccccc2)c1-c1ccc(S(N)(=O)=O)cc1', 1),
  ('Cc1cc(/C=C/c2ccc3cc(N(C)C)ccc3[n+]2C)c(C)n1-c1ccccc1', 1.01),
  ('CCN1C[C@@]2(COC)C3[C@@H](OC)[C@H]4[C@@H]1[C@]3(C(OC)C[C@H]2O)C1C[C@@]2(O)[C@H](OC(=O)c3ccccc3)C1[C@]4(OC(C)=O)[C@@H](O)[C@@H]2OC (stereo partly drawn)', 1.01),
  ('CC(=O)O[C@H]1C[C@@]2(C)[C@@H](C[C@@H](O)C3[C@]2(C)CC[C@H]2[C@H](C)[C@H](O)CC[C@]32C)/C1=C(/CCC=C(C)C)C(=O)O (stereo partly drawn)', 1.02),
  ('FC(F)(F)c1cccc(N2CCNCC2)c1', 0.999),
  ('Fc1ccc([C@@H]2CCNC[C@H]2COc2ccc3c(c2)OCO3)cc1', 1.01),
  ('O=NN(CCCl)C(=O)NCCCl', 0.973);

====

ASSAY_COMMENT: chemical genetic growth profiling, strain panel (AID 1159580);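 note: tested at 20 µM; growth read once vehicle control cultures reached saturation at 30 °C; 1 = growth at the plate median or of vehicle wells; lower values mean less growth of the strain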
RUN_CONDITIONS: S. cerevisiae deletion strains, growth OD, strain NNK1
Screen size: about 5,500 compounds; about 2,000 (36%) were called active. Not shown: some 18% with an inconclusive outcome. Rule as the data show it: active = normalized growth mostly below about 0.91 (no sharp cut-off); inconclusive = no clear call, values can overlap the other calls; inactive = mostly above about 0.92. The list shows a part of the results.
Classes used: yes (1) (active), no (0) (inactive)

INSERT INTO assay_data (compound, class_assignment) VALUES
  ('Cn1nccc1-c1cc(Cl)cc(Cl)c1O', 'no (0)'),
  ('Cc1noc(C)c1S(=O)(=O)Nc1csc(C(F)(F)F)c1-c1ccccc1', 'no (0)'),
  ('C/C(=N/NC(=S)NCC(C)(C)C)c1cc(F)cc(Cl)c1O', 'no (0)'),
  ('O=C(Oc1ccc2ccccc2c1C1SCCS1)c1ccc([N+](=O)[O-])o1', 'no (0)'),
  ('O=C(Nc1ccncc1)c1cc(-c2ccccc2)oc1C(F)(F)F', 'no (0)'),
  ('Clc1ccc(Oc2ccnc3cc(Cl)ccc23)cc1', 'yes (1)'),
  ('N/C(=N/O)c1ccc(Oc2ccc(C3SCCS3)cc2)c([N+](=O)[O-])c1', 'no (0)'),
  ('Clc1ccc(CSc2nccn2-c2cc(Cl)ccc2Cl)cc1', 'no (0)'),
  ('CC(C)(C)C1=C(C#N)C(c2c(Cl)cccc2Cl)C(C#N)=C(N)O1 (stereo not drawn)', 'no (0)'),
  ('CCOC(=O)c1sc(S(C)=NC(=O)Nc2ccc(Cl)cc2)c2c1CCC=C2 (stereo not drawn)', 'no (0)'),
  ('COc1ccc2c(c1)CCc1sc(NC(=O)c3ccco3)nc1-2', 'no (0)'),
  ('Cc1ccccc1/C=C/c1c[nH]c2ccccc12', 'no (0)'),
  ('CC1C(c2ccccc2)N(C)C(c2ccccc2)CC1(O)c1ccc(F)cc1 (stereo not drawn)', 'no (0)'),
  ('CC1=CC(=O)N(c2ccc(OC(F)(F)F)cc2)C1=O', 'no (0)'),
  ('Cc1ccc(NC(=S)C(C#N)C(=O)N2CCOCC2)c(C)c1 (stereo not drawn)', 'no (0)'),
  ('O=C(Nc1cc(Cl)ccc1O)c1ccccc1CSc1ccc(Cl)cc1', 'no (0)'),
  ('Cc1c(S(=O)(=O)Nc2cccc([N+](=O)[O-])c2)sc2ccc(Cl)cc12', 'no (0)'),
  ('CNC(=O)Sc1c(-c2ccc(Cl)cc2)nn(C(=O)NC)c1SC', 'no (0)'),
  ('CC1CCC(C(C)C)C(N(Cc2ccccc2)C(=O)c2ccccc2)C1 (stereo not drawn)', 'no (0)'),
  ('Clc1ccc(-c2cnc(Nc3cc(Cl)cc(Cl)c3)s2)cc1', 'no (0)'),
  ('Cc1cccc(N=NC(C(=O)C(F)(F)F)=C(O)c2cccs2)c1', 'no (0)'),
  ('O=[N+]([O-])c1ccsc1Oc1cccc(C(F)(F)F)c1', 'no (0)'),
  ('Clc1cccc(Nc2ncc(-c3ccc4c(c3)OCCCO4)s2)c1', 'no (0)');

====

normalized growth by entry:
ASSAY_COMMENT: chemical genetic growth profiling, strain panel (AID 1159580);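 note: tested at 20 µM; growth read once vehicle control cultures reached saturation at 30 °C; 1 = growth at the plate median or of vehicle wells; lower values mean less growth of the strain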
RUN_CONDITIONS: S. cerevisiae deletion strains, growth OD, locus YPL240C, strain hsp82, hits give low values
Hit rate of the full screen: of about 5,500 compounds, about 2,000 (36%) were called active. Not shown: some 18% with an inconclusive outcome. The list shows a part of the results. Where a SMILES comes first, the peptide text is derived from it.
ASSAY_ENDPOINT: normalized growth

INSERT INTO assay_data (compound, assay_endpoint, test_result) VALUES
  ('CC(=O)O[C@@H]1CC2C(C)(C)C(=O)C3OC3[C@]2(C)C2CC[C@@]3(C)[C@H](c4ccoc4)OC(=O)C4OC43[C@@]21C (stereo partly drawn)', 'normalized growth', 0.981),
  ('COC(=O)[C@@H]1OC(=O)C2OC23[C@@]1(C)CCC1[C@]2(C)C(C[C@@H](O)[C@]13C)C(C)(C)[C@H](OC(C)=O)C[C@@H]2OC(C)=O (stereo partly drawn)', 'normalized growth', 1),
  ('NC(=O)NC1NC(=O)NC1=O (stereo not drawn)', 'normalized growth', 1.01),
  ('CC(=O)O[C@H]1CC[C@@]2(C)C(C[C@@H](OC(C)=O)[C@]3(C)C2CC[C@@]2(C)[C@H](c4ccoc4)OC(=O)[C@H]4O[C@]423)C1(C)C (stereo partly drawn)', 'normalized growth', 1),
  ('CCCNC(=O)NS(=O)(=O)c1ccc(Cl)cc1', 'normalized growth', 1.01),
  ('Cc1cc(/C=C/c2ccc3cc(N(C)C)ccc3[n+]2C)c(C)n1-c1ccccc1', 'normalized growth', 1.01),
  ('COc1ccc(-c2oc3cc(OC)c(OC)c(OC)c3c(=O)c2OC)cc1OC', 'normalized growth', 0.995),
  ('CC(=O)O[C@@H]1CC2C(C)(C)[C@@H](O)CC[C@]2(C)C2CC[C@@]3(C)[C@H](c4ccoc4)OC(=O)[C@H]4O[C@]43[C@@]21C (stereo partly drawn)', 'normalized growth', 0.989),
  ('Fc1ccc([C@@H]2CCNC[C@H]2COc2ccc3c(c2)OCO3)cc1', 'normalized growth', 1.02),
  ('CC(=O)O[C@H]1C[C@@H](OC(C)=O)C(C)(C)C2C[C@@H](O)[C@]3(C)C(CC[C@@]4(C)[C@H](c5ccoc5)OC(=O)[C@H]5O[C@]543)[C@]21C (stereo partly drawn)', 'normalized growth', 0.984),
  ('CC[C@@H]1OC(=O)C[C@@H](O)[C@H](C)[C@@H](O[C@@H]2O[C@H](C)[C@@H](O)[C@H](N(C)C)[C@H]2O)[C@@H](CCN2C[C@H](C)C[C@H](C)C2)C[C@@H](C)C(=O)/C=C/C(C)=C\[C@@H]1CO[C@@H]1O[C@H](C)[C@@H](O)[C@@H](OC)[C@H]1OC', 'normalized growth', 1),
  ('CCCn1c(=O)c2[nH]c(C3CCCC3)nc2n(CCC)c1=O', 'normalized growth', 0.983),
  ('CC1(C)N([O-])[N+](=O)C1(C)Br (stereo not drawn)', 'normalized growth', 0.97),
  ('Cc1onc(-c2ccccc2)c1-c1ccc(S(N)(=O)=O)cc1', 'normalized growth', 0.991),
  ('CC(C)=CC1C(C(=O)OCc2cccc(Oc3ccccc3)c2)C1(C)C (stereo not drawn)', 'normalized growth', 1.01),
  ('Nc1nc(F)nc2c1ncn2[C@@H]1O[C@H](COP(=O)(O)O)[C@@H](O)[C@@H]1O', 'normalized growth', 1.01),
  ('COC(=O)[C@@H]1OC(=O)C2OC23[C@@]1(C)CCC1[C@@]2(C)CCC(=O)C(C)(C)C2C[C@@H](OC(C)=O)[C@]13C (stereo partly drawn)', 'normalized growth', 1.01),
  ('COc1ccc2oc3ccccc3c(=O)c2c1', 'normalized growth', 0.931),
  ('CCC(=O)OC1[C@@H]2CC3=C4CC(=O)O[C@@H](c5ccoc5)[C@]4(C)CCC3[C@@](C)(C2=O)[C@@H](CC(=O)OC)C1(C)C (stereo partly drawn)', 'normalized growth', 0.99),
  ('NCC[C@@H](O)C(=O)N[C@@H]1C[C@H](N)[C@@H](O[C@H]2O[C@H](CN)[C@@H](O)[C@H](O)[C@H]2O)[C@H](O)[C@H]1O[C@H]1O[C@H](CO)[C@@H](O)[C@H](N)C1O (stereo partly drawn)', 'normalized growth', 1.02),
  ('O=c1[nH]c(=O)n(C2C[C@H](O)[C@@H](CO)O2)cc1C(F)(F)F (stereo partly drawn)', 'normalized growth', 0.969),
  ('COC1C=CC23c4cc5c(cc4CN(CC2O)[C@@H]3C1)OCO5 (stereo partly drawn)', 'normalized growth', 0.965),
  ('CC1(C)C(=O)[C@@H]2O[C@@H]2[C@@]2(C)C1C[C@@H](O)[C@]1(C)C2CC[C@@]2(C)[C@H](c3ccoc3)OC(=O)C3OC321 (stereo partly drawn)', 'normalized growth', 1.01),
  ('C1N2CN3CN1CN(C2)C3', 'normalized growth', 0.993),
  ('CN1CCC[C@@H]1CCO[C@](C)(c1ccccc1)c1ccc(Cl)cc1', 'normalized growth', 0.992),
  ('C=NC(C(=O)NC1C(=O)N2C1SC(C)(C)C2C(=O)O)c1ccccc1 (stereo not drawn)', 'normalized growth', 1.01),
  ('COc1ccc(CCC(=O)c2c(O)cc(O[C@@H]3O[C@H](CO)C(O)[C@H](O)C3O[C@@H]3O[C@@H](C)[C@H](O)[C@@H](O)[C@H]3O)cc2O)cc1O (stereo partly drawn)', 'normalized growth', 1.02),
  ('C=C1C(=O)[C@]23[C@H](O)[C@H]1CC[C@H]2[C@@]12CO[C@]3(O)[C@H](O)[C@@H]1C(C)(C)CC[C@@H]2O', 'normalized growth', 0.975),
  ('O=C(O)CCC1NCC2CC1CN1CCCCC21 (stereo not drawn)', 'normalized growth', 0.974),
  ('CC(=O)O[C@@H]1CC2C(C)(C)[C@H](O)C=C[C@]2(C)C2CC[C@@]3(C)[C@H](c4ccoc4)OC(=O)C4OC43[C@@]21C (stereo partly drawn)', 'normalized growth', 1.02),
  ('CCCCC(=O)O[C@]1(C(=O)CO)CCC2C3CCC4=CC(=O)CC[C@]4(C)C3[C@@H](O)C[C@@]21C (stereo partly drawn)', 'normalized growth', 0.972),
  ('CC(=O)N[C@@H](CC(=O)O)C(=O)N[C@@H](CCC(=O)O)C(=O)O (Ac-Asp-Glu-OH)', 'normalized growth', 1.01),
  ('COc1ccc2nc(S(=O)Cc3ncc(C)c(OC)c3C)[nH]c2c1 (stereo not drawn)', 'normalized growth', 1.01);

Values from PubChem BioAssay AID1159580
